System: UACC-257 melanoma
Test: NCI-60 one-dose screen, 48 h (100 = growth as untreated, 0 = no growth, -100 = all killed)
Settings: 10 µM unless noted
This is part of a sample that, as a whole, favours compounds with a hit. Of some 83,000 tested, about 20% had one in any assay.
measured endpoint: growth (%)
Hi! Could you send only the number? It should be in %, unit omitted.

Some compounds with recorded growth:
COc1ccc(C/C(C)=C(\c2ccc(O)cc2)c2ccc(OCCN3CCCCC3)cc2)cc1; 110
O=c1oc2c(cc1-c1ccccc1)c(=O)[nH]c1ccccc12; 100
Cc1ccc(S(=O)(=O)N2CCCN(c3nc(-c4ccccc4)nc4nc(-c5ccccc5)oc34)CC2)cc1; 108
CC[C@H](Nc1nc(N)nc(C)c1C#N)c1nc2cccc(CN(C)c3ncc(C(=O)NO)cn3)c2c(=O)n1-c1ccccc1; -20.8
Cn1c(=O)c2[nH]c(SC/C(=N/O)c3ccc(Br)cc3)nc2n(C)c1=O; 84

Lab note: next compound to report on.
Prompt line: Give the value of growth reported for the following: `O=c1cc(CNc2cc(F)cc(F)c2)c2ccc(I)cc2[nH]1`
Response line: 53.4

---

Tested on: PC-3 prostate
Assay: NCI-60 one-dose screen, 48 h
Details: 10 µM unless noted
Compounds without any hit were thinned out: in the full panel of roughly 83,000, 20% have a hit. Active and inactive are the calls of the source. How the source made its calls: active means growth percent below 10; inactive means the rest.
Valid outcomes are listed here; reply with one: active, inactive

COC12C=C/C(=C(/C(=O)OCCSc3ccnn3C)C(=O)CCCCCCCCC3(OC)C=C/C(=C(/C(=O)OCCSc4ccnn4C)C(=O)CCCCCCCC1)O3)O2; inactive
COc1cc(O)c2c(=O)c3c(CC=C(C)C)cc(OC)c(O)c3oc2c1; inactive
COC(=O)c1sccc1-c1cc(O)c(C(=O)Nc2ccccc2)s1; inactive
NCCCNc1nc2ccccc2c2c(=O)c3cc(Cl)ccc3sc12; active

Prompt line: # fetch the recorded call for Cc1ccc(C2CC(c3cccc(Nc4ccncc4)c3)=Nc3c(N)nc(N)nc3N2)cc1 (stereo not given) here
Response line: inactive

Prompt line: # fetch the recorded call for `CCN(CC)CCOc1ccc2ccc(=O)oc2c1` here
Response line: inactive

---

Test system: HS 578T breast
Test: NCI-60 one-dose screen, 48 h (100 = growth as untreated, 0 = no growth, -100 = all killed)
Conditions: 10 µM unless noted
The panel holds about 83,000 compounds, 20% with a hit somewhere; the sample as a whole holds those more often. Calls of active or inactive are those of the source. How the source made its calls: active means growth percent below 10; inactive means the rest.
// reported growth per item

Some molecules with recorded growth:
COc1ccc2cc(C(=O)N3CCC([C@@H](C)C(=O)NCc4ccc5c(c4)OCO5)CC3)[nH]c2c1; 22.9% [50 µM] (inactive)
O=C(Nc1ccccc1O)c1ccc(CNc2ccnc(C(F)(F)F)c2)cc1; 50% (inactive)
COc1ccc(CNc2ccc3nc(NC(=O)CN4CCCCCC4)sc3c2)cc1; 115% (inactive)
CC12OC(CC(O)C1O)n1c3ccccc3c3c4c(c5c6ccccc6n2c5c31)C(=O)N(CCN1CCCC1)C4=O (centres undefined); 41.1% (inactive)
CNC(=O)Nc1ccc(-c2ccc3ncnc(Nc4cccc(Cl)c4)c3c2)cc1; 46.5% (inactive)

Prompt line: Give the value of growth reported for the following: `N#Cc1ccc(/C=C/c2cn(-c3ccccc3)nc2-c2cccc([N+](=O)[O-])c2)cc1`
Response line: 76.2% (inactive)

Prompt line: Give the value of growth reported for the following: `CC1(C)CC[C@]23CC[C@]4(C)[C@H](CC[C@@H]5[C@@]6(C)CCNCC(C)(C)[C@@H]6CC[C@]54C)[C@H]2[C@H]1OC3`
Response line: 104% (inactive)

Prompt line: Give the value of growth reported for the following: `COc1cc(C=Nc2oc(-c3ccccc3)c(-c3ccccc3)c2C#N)cc(CN2CCCC2)c1O`
Response line: 90.2% (inactive)

Prompt line: Give the value of growth reported for the following: COC12C=C/C(=C(/C(=O)OCc3csc(SC)n3)C(=O)CCCCCCCCC3(OC)C=C/C(=C(/C(=O)OCc4cnc(SC)s4)C(=O)CCCCCCCC1)O3)O2 (centres undefined)
Response line: 57.2% (inactive)

Prompt line: Give the value of growth reported for the following: `Cn1c2ccccc2c2c3c(c4c5cc(Br)ccc5n(C)c4c21)C(=O)N(O)C3=O`
Response line: 61.9% (inactive)

Prompt line: Give the value of growth reported for the following: `COc1ccc(/C=N/Nc2c3ccccc3nc3ccccc23)cc1`
Response line: 93.1% (inactive)

Prompt line: Give the value of growth reported for the following: `O=C(CSc1nnnn1-c1ccccc1)Nc1ccc(Oc2ccccc2)cc1`
Response line: 99.2% (inactive)

Prompt line: Give the value of growth reported for the following: C1CCC(N2CN3c4nonc4N4CN(C5CCCCC5)CN5c6nonc6N(C2)C3C45)CC1 (centres undefined)
Response line: 86.6% (inactive)

src = PubChem BioAssay (NCI)
